# Tested target: hGLP-1R (Homo sapiens, UniProt P43220)
# Sequence (P43220 24-463): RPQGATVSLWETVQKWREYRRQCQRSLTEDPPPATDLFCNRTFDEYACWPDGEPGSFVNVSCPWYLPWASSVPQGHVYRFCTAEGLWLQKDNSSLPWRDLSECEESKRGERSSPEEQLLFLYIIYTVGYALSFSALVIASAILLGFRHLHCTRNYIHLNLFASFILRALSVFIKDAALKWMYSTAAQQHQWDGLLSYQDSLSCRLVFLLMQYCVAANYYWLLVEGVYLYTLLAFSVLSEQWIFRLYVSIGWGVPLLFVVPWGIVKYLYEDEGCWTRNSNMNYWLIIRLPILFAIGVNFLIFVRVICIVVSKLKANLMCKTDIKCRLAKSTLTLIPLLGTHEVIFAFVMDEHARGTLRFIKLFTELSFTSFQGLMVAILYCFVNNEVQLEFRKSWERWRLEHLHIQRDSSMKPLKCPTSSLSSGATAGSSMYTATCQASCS
# Experiment notes: Functional cAMP activation in the presence of 0.1% casein (no HSA);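 also: intracellular cAMP rise after 30 min at 37 °C read by HTRF, normalized between buffer only (0%) and maximal control ligand (100%), four-parameter variable-slope fit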
# Type: cell-based
# Assay context: in the presence of 0.1% casein (no HSA); geometric mean; read-out: Relative cAMP EC50, hGLP-1R
Starred links: 1 amine or outer side, 2 acyl side, 3 side chain; linkers in the order of their positions; H or OH if unused. Non-standard residues stand in square brackets, D forms with d. Groups on a side chain read outwards from the residue. *: point of attachment. C18 diacid = O=C(O)CCCCCCCCCCCCCCCCC(=O)*; γGlu = O=C(O)[C@H](CCC(=O)[*:2])N[*:1]; αMe4Pal = C[C@](N)(Cc1ccncc1)C(=O)O; αMeY = C[C@](N)(Cc1ccc(O)cc1)C(=O)O; 4Pal = N[C@@H](Cc1ccncc1)C(=O)O; αMeL = CC(C)C[C@](C)(N)C(=O)O; Orn = NCCC[C@H](N)C(=O)O; Aib = CC(C)(N)C(=O)O
Measured quantity: EC50 (nM)
Could you give me the number in nM? Just the number is fine.

Example cases with answers are listed next.
{"Substance": "H-Y[Aib]QGTFTSD[4Pal]SQ[αMeL]LD[Orn]K([γGlu-γGlu-C18 diacid])AQ[αMe4Pal]AFIE[αMeY]LIEGGPSSGEPPPSGSEE-NH2 [Example 1027]", "Display unit": "nM", "Data value": 1.23}
{"Substance": "H-Y[Aib]QGTFTSD[4Pal]SQ[αMeL]LDKK([γGlu-γGlu-C18 diacid])AQ[Aib]AFIE[αMeY]LLEGGPSSGAPPPSGS-NH2 [Example 938]", "Display unit": "nM", "Data value": 1.84}

Then this substance:
substance H-Y[Aib]QGTFTSD[4Pal]SQ[αMeL]LDKK([γGlu-γGlu-C18 diacid])AQ[αMe4Pal]AFIEYLIAGGPSSGAPPPSGE-NH2 [Example 883] , EC50 observed: 1.05
